Target: Solute carrier family 2, facilitated glucose transporter member 1 (Homo sapiens) (UniProt P11166)
Sequence (P11166 whole entry): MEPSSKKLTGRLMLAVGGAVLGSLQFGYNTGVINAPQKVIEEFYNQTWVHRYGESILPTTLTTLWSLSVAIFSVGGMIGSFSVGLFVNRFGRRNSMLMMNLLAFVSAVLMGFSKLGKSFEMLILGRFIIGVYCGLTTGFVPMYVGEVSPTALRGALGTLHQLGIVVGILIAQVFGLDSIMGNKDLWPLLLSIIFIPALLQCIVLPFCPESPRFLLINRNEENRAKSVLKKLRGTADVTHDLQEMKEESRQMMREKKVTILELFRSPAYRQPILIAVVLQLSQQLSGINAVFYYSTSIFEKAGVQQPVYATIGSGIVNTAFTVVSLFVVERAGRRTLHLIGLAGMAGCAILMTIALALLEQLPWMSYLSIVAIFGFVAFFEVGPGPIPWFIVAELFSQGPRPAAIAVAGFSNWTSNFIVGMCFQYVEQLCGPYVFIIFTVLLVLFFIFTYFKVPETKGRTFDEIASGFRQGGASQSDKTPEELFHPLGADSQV
Experiment: ST_JUDE_LEISH: Cytotoxicity at 2uM final concentration against transgenic Leishmania Mexicana promastigotes LmGLUT1 that are glucose transport deficient and complemented with the human glucose transporter GLUT1. Activity is measured by DNA content using SYBR green in vitro
Type: functional
inhibition: recorded values
Write down the value, and be sure its unit follows.

Some entries whose results are on file:
> print(dat)
                                   molecule  result
1  COc1ccc2c(=NN=C(C)c3ccccn3)cc(C)[nH]c2c1   5.68%
2  CCCCN(Cc1cc(Cl)c(OCC)c(OC)c1)c1ccc(C(O)(C(F)(F)F)C(F)(F)F)cc1  -0.54%
3           COc1ccc(NCCCNc2ccnc3ccccc23)cc1   5.01%
4  COc1cc2nc(NCCc3ccccc3)nc(NCCCc3ccccc3)c2cc1OC   6.89%
5  O=C(c1c(-c2[nH]c3ccccc3c2C(=O)C(F)(F)F)[nH]c2ccccc12)C(F)(F)F   1.75%
6  CCN(CC)CCN(Cc1ccc(-c2ccc(C(F)(F)F)cc2)cc1)C(=O)Cn1c(SCc2ccc(F)cc2)nc(=O)c2sccc21   5.28%
7  CN(C)CC(=O)NCC(NCCCNc1cc(=O)c2ccccc2[nH]1)c1cc(Br)cc(Br)c1 (stereo not drawn)    5.5%
8  COCCOc1ccc(Nc2nccc(-c3c(-c4cccc(NC(=O)c5c(F)cccc5F)c4)nn4ccccc34)n2)cc1F   7.82%

// next item, inhibition requested
Looking up `COc1ccc(CNCCCCCCCNCc2ccc(Cl)c(Cl)c2)cc1Cl` , I found its inhibition recorded as 5.86%

---

Target: Hexose transporter 1 (Plasmodium falciparum)
Test: ST_JUDE_LEISH: Cytotoxicity at 2uM final concentration against transgenic Leishmania Mexicana promastigotes LmPfHT that are glucose transport deficient and complemented with the Plasmodium falciparum hexose transporter. Activity is measured by DNA content using SYBR green in vitro
Assay type: functional
propertyName: inhibition (%)
Supply the numeric figure in %, leaving out any unit text.

> print(dat)
                                   molecule                               assaysystem  endpointunit  measurednumber
1  C=CCc1cccc(C)c1OCCCON1C(=N)N=C(N)NC1(C)C  Hexose transporter 1 (Plasmodium falciparum)             %            2.76
2  O=C(NC1CC1)c1ccc(N2CCCC(COc3ccccc3F)C2)nc1 (stereo not drawn)  Hexose transporter 1 (Plasmodium falciparum)             %            1.75
3          Clc1nc2ccccn2c1C=Cc1ccc2ccccc2n1  Hexose transporter 1 (Plasmodium falciparum)             %            3.43
4  Cc1onc(-c2ccc(Cl)cc2)c1-c1ccnn1S(=O)(=O)c1ccc(Cl)cc1  Hexose transporter 1 (Plasmodium falciparum)             %            4.29
5  O=C(Nc1ccc(Cl)c(Cl)c1)Nc1ccc(F)c([N+](=O)[O-])c1  Hexose transporter 1 (Plasmodium falciparum)             %             0.4
6  Cc1cc(C2CCN(CCCCNC(=O)c3ccc(NC(=O)c4ccc(Cl)cc4)cc3)CC2)c(C)cc1OCc1ccncc1  Hexose transporter 1 (Plasmodium falciparum)             %            7.09
7  Cc1cccc(CC2CC(=O)N(c3ccc([N+](=O)[O-])cc3)C2=O)c1 (stereo not drawn)  Hexose transporter 1 (Plasmodium falciparum)             %            7.62
8  Cn1ccc(-c2cccc(Nc3ccnc4cc(-c5nccs5)ccc34)c2)n1  Hexose transporter 1 (Plasmodium falciparum)             %            0.32

Form: item N#Cc1ccc(C=CC(=O)NC2CCC(CCN3CCc4ccc(-c5cnccn5)cc4CC3)CC2)cc1 (stereo not drawn) ; test system Hexose transporter 1 (Plasmodium falciparum); inhibition: 2.97

inhibition on Hexose transporter 1 (Plasmodium falciparum) for `COc1cc(Br)ccc1N1CCN(CCCCNC(=O)c2ccc(NC(=O)c3ccc(Cl)cc3)cc2)CC1` is 2.33

Summary: `COc1cccc(C(=O)Nc2sc3c(c2C(N)=O)CCCC3)c1OC` , Hexose transporter 1 (Plasmodium falciparum), inhibition = 8.04

// molecule `CCc1ccc(S(=O)(=O)Nc2ccc(CCN3CCC(N4CCCCC4)CC3)cc2)cc1` , assay Hexose transporter 1 (Plasmodium falciparum), inhibition value: 14.9

The molecule COc1cc(OC)cc(-c2nn(-c3ccc([N+](=O)[O-])cc3Cl)c(=S)n2CC2CCCO2)c1 (stereo not drawn) , when measured on Hexose transporter 1 (Plasmodium falciparum), yielded inhibition of -3.05

Item: `COc1ccc(-c2ccc(NC(=O)c3cccc(Cl)c3)cc2)cc1CN(C)CCO` | System: Hexose transporter 1 (Plasmodium falciparum) | inhibition: 0.94

Hey, Hexose transporter 1 (Plasmodium falciparum) data for `O=C(Nc1ccccc1)Nc1cccc(-c2nn3c(OCCN4CCCC4)cccc3c2-c2ccncc2)c1` : inhibition came out at 6.38

Hey, Hexose transporter 1 (Plasmodium falciparum) data for `CCC[C@@H]([C@@H](CC1CCCCC1)C(=O)N[C@H](C(=O)Nc1nccs1)[C@@H](C)OCc1ccccc1)N(O)C=O` : inhibition came out at 3.62

Lab entry: Hexose transporter 1 (Plasmodium falciparum) assay, molecule O=C(NCC1CCC(C(=O)NC2CCCc3ccccc32)CC1)c1ccc(O)c(-c2cccc([N+](=O)[O-])c2)c1 (stereo not drawn) , inhibition = 2.12

Hexose transporter 1 (Plasmodium falciparum) assay, molecule `CCn1ccc2c(N3CCCS3(=O)=O)cc(C(=O)N[C@@H](Cc3ccccc3)[C@H](O)CNC(C)(C)CCCC(C)C)cc21` , recorded inhibition = 7.48

---

Recorded inhibition by entry
Molecular target: Glucose transporter (Leishmania mexicana)
Assay: ST_JUDE_LEISH: Cytotoxicity at 2uM final concentration against transgenic Leishmania Mexicana promastigotes LmGT2 that are glucose transport deficient and complemented with the L. Mexicana glucose transporter 2. Activity is measured by DNA content using SYBR green in vitro
Assay type: functional

Completed entries (count: 6):
> print(dat)
                                   compound  result
1  CCOC(=O)c1ccc(NC(=O)Nc2ccc(-c3cccc(-c4nc5ccccc5[nH]4)c3)cc2)cc1   1.68%
2     Cc1cc(OCc2ccncc2)cc2c1C(=O)CC(C)(C)O2   0.39%
3  COc1ccc(F)cc1-c1ccccc1CNC(=O)CN(C)S(=O)(=O)c1cc(C)cc(Cl)c1C   0.93%
4  O=C(Nc1ccc(Cl)c(C(F)(F)F)c1)c1ccc(Cl)c([N+](=O)[O-])c1   0.08%
5  CC(=O)c1ccc2cc(C(=O)NC3CCC(CCN4CCc5ccc(-c6noc(C)n6)cc5CC4)CC3)[nH]c2c1 (configuration not stated)  -2.09%
6  CC(=O)c1ccc(NC(=O)Nc2ccc(N(C)c3ccnc(Nc4cccc(CS(C)(=O)=O)c4)n3)cc2)cc1   4.04%

Could you now look at the following compound, please?
Short answer for `O=C(/C=C/c1ccc(Cl)c(Cl)c1)NCCCCCN1CCCN(C(=S)Nc2ccc(Cl)c(Cl)c2)CC1` : inhibition was 0.13%

---

Target: Hexose transporter 1 (Plasmodium falciparum) (UniProt O97467)
Assay: ST_JUDE_LEISH: Cytotoxicity at 2uM final concentration against transgenic Leishmania Mexicana promastigotes LmPfHT that are glucose transport deficient and complemented with the Plasmodium falciparum hexose transporter. Activity is measured by DNA content using SYBR green in vitro
Format: functional
propertyName: inhibition (%)
Write the value in % as a bare number.

> print(dat)
                                   compound  measurednumber
1  CCN(CC)CCCC(C)Nc1ccnc2ccc(OC)cc12 (centres undefined)            8.91
2  Cc1noc(C)c1-c1cccc(CNCc2cccc(-c3ccc(-c4nc5cccc(C)c5[nH]4)s3)c2)c1            2.47
3  Cc1ccc(-c2nc3ccccc3o2)cc1NCc1cc(Cc2ccccc2)ccc1O           -0.23

Consider the additional compound presented here.
Memo: `COc1cc(NCCCNC(=O)c2ccc(Cl)c(Cl)c2)nc2ccccc12` , reported inhibition: 5.69

---

Catalogue of inhibition readings, one per entry.
Target: Glucose transporter (Leishmania mexicana) (UniProt O61059)
Assay: ST_JUDE_LEISH: Cytotoxicity at 2uM final concentration against transgenic Leishmania Mexicana promastigotes LmGT2 that are glucose transport deficient and complemented with the L. Mexicana glucose transporter 2. Activity is measured by DNA content using SYBR green in vitro
Type: functional

Known results for molecules:
> print(dat)
                                   molecule                               assaysystem  propertyname  result
1  O=S(=O)(NC1CCCCN(Cc2ccccc2O)C1)c1ccc(C(F)(F)F)cc1 (centres undefined)  Glucose transporter (Leishmania mexicana) (UniProt O61059)    inhibition   0.86%
2  CC(C)(C)C1CCC(CC2=C(C(=O)O)c3ccccc3C2=O)CC1 (centres undefined)  Glucose transporter (Leishmania mexicana) (UniProt O61059)    inhibition  -1.33%
3           Cc1c(Cl)cccc1N=C(S)NN=Cc1ccccn1  Glucose transporter (Leishmania mexicana) (UniProt O61059)    inhibition   -0.2%

Continue with the next molecule.
Lab book: inhibition of `CCOc1ccc2c(=NN=Cc3cccc(OC)c3OC)cc(C)[nH]c2c1` noted as 6%
